Reference source: patent US20200157194A1

ASSAYED_SYSTEM: T1, recombinant human GREM1 (hGREM1-His; C-terminal 10His tagged, R&D, #5190-GR) (human, UniProt O60565 25-184, limits assumed)
T1 sequence: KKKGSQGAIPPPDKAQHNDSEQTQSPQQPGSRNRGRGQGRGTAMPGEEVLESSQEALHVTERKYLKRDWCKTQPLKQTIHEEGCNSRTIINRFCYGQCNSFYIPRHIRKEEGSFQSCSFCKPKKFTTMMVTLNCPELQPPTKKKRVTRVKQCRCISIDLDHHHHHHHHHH
MEASUREMENT_PROTOCOL: cell-based or functional assay
// reported hGREM1-His Inhibition IC50, M; W-20-17 cell differentiation assay (alkaline phosphatase) for each item listed
Please state the figure in nM; there is no need to write the unit.

H4H6248P (antibody, human IgG4, V domains shown, H4H prefix = human IgG4 Fc) VH: QVQLVESGGGVVQPGRSLRLSCAASGFTFSNYGMHWVRQVPGKGLEWVAVIWYDGSNKYYADSVKGRFTISRDNSKNTLYLQMNSVRAEDTAVYYCARDDYGDSPGFDYWGQGTLVTVSS VL: EIVMTQSPATLSVSPGERATLSCRASQSVSSSLAWYQQKPGQAPRLLIYDASTRATGIPARFSGSGSGTEFTLTISGLQSEDFAVYYCQQYNNWPPWTFGQGTKVEIK :: 5.6

// moving on: another record for hGREM1-His Inhibition IC50, M; W-20-17 cell differentiation assay (alkaline phosphatase)
[in] Dear colleague, I am looking for the recorded hGREM1-His Inhibition IC50, M; W-20-17 cell differentiation assay (alkaline phosphatase) of the following binder: H4H6246P (antibody, human IgG4, V domains shown, H4H prefix = human IgG4 Fc) VH: QVQLVESGGGVVQPGRSLRLSCAASGFTFSSYGMHWVRQAPGKGLEWVAIIWYDGSNRYYADSVKGRFTISRDNSRNTLYLQMNSLRAEDTAVYYCARDEYGDYDYPFDYWGQGTLVTVSS VL: DIQMTQSPSSLSASVGDRVTITCRASQGIRNDLGWFQQKPGKAPKRLIYAASSLQSGVPSRFSGSGSGTEFTLTISSLQPEDFATYYCLQHNTYPPFTFGPGTKVDIK
[out] 6.2
